These measurements were taken from the METLIN SMRT retention time set (Domingo-Almenara et al. 2019).

Measured RP-LC retention time, listed per entry for reference.
PROTOCOL: gradient 5% acetonitrile 3 min, to 50% in 2 min, to 85% in 15 min, held 3 min, 100 µL/min
CONDITION PARAMETERS: column: Zorbax Extend-C18 2.1 x 50 mm; eluents: water / acetonitrile, 0.1% formic acid
Give a bare numeral; the unit s is implied.

I'd like to know its RP-LC retention time. The molecule in question is `Cc1ccc(C)c(NC(=O)Cn2c(=O)n(-c3ccc(F)cc3)c3ncccc32)c1` 880

I'd like to know its RP-LC retention time. The molecule in question is Cc1cccc(NC(=O)N2CCCC(C)(C(=O)NCc3ccc(F)cc3)C2)c1 (stereo not drawn) 924

I'd like to know its RP-LC retention time. The molecule in question is COC(=O)N1CCc2ccccc2C1C(=O)Nc1ccccc1C(F)(F)F (stereo not drawn) 877

###

PROTOCOL: gradient 5% acetonitrile 3 min, to 50% in 2 min, to 85% in 15 min, held 3 min, 100 µL/min
CONDITION PARAMETERS: column: Zorbax Extend-C18 2.1 x 50 mm; eluents: water / acetonitrile, 0.1% formic acid
Measured RP-LC retention time, listed per entry for reference.
Answer with the number, then the unit.

Below: 10 compounds and their reported RP-LC retention time.
compound=CCn1cc(-c2nc(CC(=O)N3CCN(c4ccccc4F)CC3)cs2)c2cccnc21 result="976 s"
compound=Cc1ccn2c(Nc3ccc4c(c3)OCCO4)c(-c3ccc(Cl)cc3)nc2c1 result="717 s"
compound="CCC(=O)N1CC(=O)Nc2ccc(Br)cc2C1c1ccccc1 (stereo not given)" result="749 s"
compound=CCc1nc2cc(-c3noc(CCc4ccc(OC)cc4)n3)ccc2o1 result="1130 s"
compound="Cc1ccc(F)cc1S(=O)(=O)N(C)CC1CCOC1 (stereo not given)" result="836 s"
compound=O=C(Cn1c(=O)oc2ccc(Cl)cc21)NC1CCCCC1 result="878 s"
compound=Cc1nc2ccccn2c(=O)c1CCN1CCC(C(=O)c2ccc(F)cc2)CC1 result="643 s"
compound=C=CCn1c(SCC(=O)OCC)nnc1-c1ccc([N+](=O)[O-])cc1 result="743 s"
compound=COc1ccc(CNC(=O)C2CCN(c3nccnc3Sc3ccccc3)CC2)c(OC)c1 result="983 s"
compound=O=C(NCCCOc1cccc2cccnc12)c1cc(=O)c2ccccc2o1 result="648 s"

I'd like to know its RP-LC retention time. The compound in question is `CCNC(=O)c1ccc2c(c1)CCN2C(C)=O` 609 s

I'd like to know its RP-LC retention time. The compound in question is `COCCNC(=O)N1CCCn2nc(-c3ccc(OC)cc3)cc2C1` 660 s

I'd like to know its RP-LC retention time. The compound in question is `Fc1ccccc1-c1noc(-c2nc(-c3ccncc3)no2)n1` 951 s

I'd like to know its RP-LC retention time. The compound in question is CC(Oc1ccc(-c2cnc3ccccc3n2)cc1)C(=O)NCCN(C)C (stereo not given) 634 s

I'd like to know its RP-LC retention time. The compound in question is `O=c1n(Cc2cc(F)cc(F)c2)nc2c(S(=O)(=O)N3CCOCC3)cccn12` 743 s

###

PROTOCOL: gradient 5% acetonitrile 3 min, to 50% in 2 min, to 85% in 15 min, held 3 min, 100 µL/min
CONDITION PARAMETERS: column: Zorbax Extend-C18 2.1 x 50 mm; eluents: water / acetonitrile, 0.1% formic acid
Use true (1) when the recorded RP-LC retention time is no lower than 800 s; use false (0) when it is lower.

Use these answered entries as a reference point.
compound=[O-][n+]1ccc(CC(O)(C(F)(F)F)C(F)(F)F)cc1 label="false (0)"
compound="CC1CN(C(=O)CSc2cn(CC(=O)N3CCCCCC3)c3ccccc23)CC(C)O1 (centres undefined)" label="true (1)"
compound=O=C(Nc1ccc(Cl)cc1)N1CCN(c2nc3ccccc3nc2C(F)(F)F)CC1 label="true (1)"

Hello, I need to know if `NC(=O)C1CCN(C(=O)c2ccc3c(c2)CCCN3S(=O)(=O)c2ccc(Cl)cc2)CC1` has measured RP-LC retention time not below 800 s. Thanks! false (0)

Hello, I need to know if `Cc1nc2cc(-c3noc(-c4ccc(F)c(F)c4)n3)ccc2o1` has measured RP-LC retention time not below 800 s. Thanks! true (1)

Hello, I need to know if `O=C(c1ccc(F)cc1)N1CCN(c2ccc(=O)n(-c3cccc(Cl)c3)n2)CC1` has measured RP-LC retention time not below 800 s. Thanks! true (1)

Hello, I need to know if `COc1ccc(NC(=O)CCC2CCN(c3cc(NC4CC4)ncn3)CC2)cc1OC` has measured RP-LC retention time not below 800 s. Thanks! false (0)

Hello, I need to know if `Cc1ccccc1OCC(=O)Nc1nc(-c2ccccc2)cs1` has measured RP-LC retention time not below 800 s. Thanks! true (1)
